Method Summary: The drug is tested on WLS-007 corresponding to human gut metagenome with ENA study accession number: PRJEB37062 and ENA sample accession number: ERS12561742 for biotransformation under anaerobic condition. The drug concentrations were measured over 9 timepoints collected between 0 and 24 hours of incubation by liquid-chromatography-coupled mass spectrometry (LC–MS); further: call rule not given here
Recorded Conditions: 2 µM
Reported Property: Bacterial Biotransformation

• Nc1nnc(-c2cccc(Cl)c2Cl)c(N)n1 = Compound NOT metabolized
• CC(C)[C@H]1CC[C@H](C(=O)N[C@H](Cc2ccccc2)C(=O)O)CC1 [NATEGLINIDE] = Compound metabolized
• Cc1ccccc1C(OCCN(C)C)c1ccccc1.O=C(O)CC(O)(CC(=O)O)C(=O)O (configuration not stated) [ORPHENADRINE CITRATE] = Compound metabolized
• O=C1N=C([O-])NC1(c1ccccc1)c1ccccc1.[Na+] [PHENYTOIN SODIUM] = Compound metabolized
• CC(C)c1nc(N(C)S(C)(=O)=O)nc(-c2ccc(F)cc2)c1/C=C/[C@@H](O)C[C@@H](O)CC(=O)[O-].CC(C)c1nc(N(C)S(C)(=O)=O)nc(-c2ccc(F)cc2)c1/C=C/[C@@H](O)C[C@@H](O)CC(=O)[O-].[Ca+2] = Compound metabolized
• Nc1nc(NC2CC2)c2ncn([C@H]3C=C[C@@H](CO)C3)c2n1.Nc1nc(NC2CC2)c2ncn([C@H]3C=C[C@@H](CO)C3)c2n1.O=S(=O)(O)O [ABACAVIR SULFATE] = Compound NOT metabolized
• CNCC[C@H](Oc1cccc2ccccc12)c1cccs1 = Compound metabolized

----------
Method Summary: The drug is tested on Z-009 corresponding to pig gut metagenome with ENA study accession number: PRJEB37062 and ENA sample accession number: ERS12561809 for biotransformation under anaerobic condition. The drug concentrations were measured over 9 timepoints collected between 0 and 24 hours of incubation by liquid-chromatography-coupled mass spectrometry (LC–MS)
Recorded Conditions: 2 µM
Reported Property: Bacterial Biotransformation

- COc1cc2nc(N3CCN(C(=O)C4CCCO4)CC3)nc(N)c2cc1OC (configuration not stated): Compound metabolized
- CC(C)[C@H]1CC[C@H](C(=O)N[C@H](Cc2ccccc2)C(=O)O)CC1 [NATEGLINIDE]: Compound metabolized
- C[C@]12C=CC(=O)C=C1CC[C@@H]1[C@@H]2C(=O)C[C@@]2(C)[C@H]1CC[C@]2(O)C(=O)CO: Compound metabolized
- CN1[C@@H]2CC[C@H]1C[C@@H](OC(=O)[C@H](CO)c1ccccc1)C2: Compound metabolized
- O=C1CN2Cc3c(ccc(Cl)c3Cl)N=C2N1 [ANAGRELIDE]: Compound NOT metabolized
- CCN(CC)C(=O)C1(c2ccccc2)CC1CN (configuration not stated): Compound NOT metabolized
- CN(C)CCOC(C)(c1ccccc1)c1ccccn1.O=C(O)CCC(=O)O (configuration not stated) [DOXYLAMINE SUCCINATE]: Compound NOT metabolized
- CN1CCN2c3ccccc3Cc3ccccc3C2C1 (configuration not stated): Compound metabolized
- CC(CCc1ccccc1)NCC(O)c1ccc(O)c(C(N)=O)c1 (configuration not stated): Compound NOT metabolized
- CC(=O)O[C@]1(C(C)=O)CC[C@H]2[C@@H]3C=C(C)C4=CC(=O)CC[C@]4(C)[C@H]3CC[C@@]21C [MEGESTROL ACETATE]: Compound metabolized
- Nc1nc(NC2CC2)c2ncn([C@H]3C=C[C@@H](CO)C3)c2n1.Nc1nc(NC2CC2)c2ncn([C@H]3C=C[C@@H](CO)C3)c2n1.O=S(=O)(O)O [ABACAVIR SULFATE]: Compound NOT metabolized
- CCOc1ccccc1OCCN[C@H](C)Cc1ccc(OC)c(S(N)(=O)=O)c1.Cl [TAMSULOSIN HYDROCHLORIDE]: Compound NOT metabolized
- CC(=O)OCC(CCn1cnc2cnc(N)nc21)COC(C)=O: Compound metabolized
- COc1ccccc1OCCNCC(O)COc1cccc2[nH]c3ccccc3c12 (configuration not stated): Compound NOT metabolized
- CC(N)C12CC3CC(CC(C3)C1)C2 (configuration not stated): Compound NOT metabolized
- CC#C[C@]1(O)CC[C@H]2[C@@H]3CCC4=CC(=O)CCC4=C3[C@@H](c3ccc(N(C)C)cc3)C[C@@]21C: Compound metabolized
- CN1CCN(CCCN2c3ccccc3Sc3ccc(Cl)cc32)CC1.O=S(=O)(O)CCS(=O)(=O)O [PROCHLORPERAZINE EDISYLATE]: Compound metabolized

----------
Recorded Conditions: human gut metagenome, 24 h, 2 µM
Reported Property: Bacterial Biotransformation

* CC1Cc2ccccc2N1NC(=O)c1ccc(Cl)c(S(N)(=O)=O)c1 (stereo not drawn) [INDAPAMIDE] | Compound NOT metabolized
* COc1ccc(CN2CCNCC2)c(OC)c1OC.Cl.Cl [TRIMETAZIDINE DIHYDROCHLORIDE] | Compound NOT metabolized
* CCc1oc2ccccc2c1C(=O)c1cc(Br)c(O)c(Br)c1 | Compound metabolized
* CN1[C@@H]2CC[C@H]1C[C@@H](OC(=O)c1c[nH]c3ccccc13)C2 | Compound NOT metabolized
* Br.COc1ccc2c(c1)[C@]13CCCC[C@@H]1[C@H](C2)N(C)CC3.O [DEXTROMETHORPHAN HYDROBROMIDE] | Compound metabolized
* CN1CCC(OC(c2ccccc2)c2ccccc2)CC1 | Compound metabolized
* CN1CCC(=C2c3ccccc3CC(=O)c3sccc32)CC1.O=C(O)/C=C/C(=O)O [KETOTIFEN FUMARATE] | Compound metabolized
* CCN(C)C(=O)Oc1cccc([C@H](C)N(C)C)c1.O=C(O)C(O)C(O)C(=O)O [RIVASTIGMINE TARTRATE] | Compound metabolized
* CN1CCN(C2=Nc3ccccc3Oc3ccc(Cl)cc32)CC1.O=C(O)CCC(=O)O [LOXAPINE SUCCINATE] | Compound NOT metabolized
* CC#CCn1c(N2CCC[C@@H](N)C2)nc2c1c(=O)n(Cc1nc(C)c3ccccc3n1)c(=O)n2C | Compound NOT metabolized
* CC(C)NCC(O)COc1ccc(CC(N)=O)cc1 (stereo not drawn) | Compound NOT metabolized
* CNCC[C@H](Oc1cccc2ccccc12)c1cccs1 | Compound NOT metabolized
* CC(C)(C)NC[C@H](O)COc1nsnc1N1CCOCC1.O=C(O)/C=C\C(=O)O [TIMOLOL MALEATE] | Compound NOT metabolized
* CCCN1C[C@H](CSC)C[C@@H]2c3cccc4[nH]cc(c34)C[C@H]21.CS(=O)(=O)O [PERGOLIDE MESYLATE] | Compound NOT metabolized
* CCOC(=O)[C@H](CCc1ccccc1)N[C@@H](C)C(=O)N1Cc2ccccc2C[C@H]1C(=O)O | Compound metabolized
* CC(=O)Oc1ccc(C(c2ccc(OC(C)=O)cc2)c2ccccn2)cc1 | Compound metabolized
* CCCN(CCC)CCc1cccc2c1CC(=O)N2 | Compound metabolized
* CN1CCN2c3ccccc3Cc3ccccc3C2C1 (stereo not drawn) | Compound metabolized

----------
Method Summary: The drug is tested on Z-023 corresponding to metagenome with ENA study accession number: PRJEB37062 and ENA sample accession number: ERS12561822 for biotransformation under anaerobic condition. The drug concentrations were measured over 9 timepoints collected between 0 and 24 hours of incubation by liquid-chromatography-coupled mass spectrometry (LC–MS)
Recorded Conditions: 2 µM
Reported Property: Bacterial Biotransformation

* CN1CCN(CCCN2c3ccccc3Sc3ccc(Cl)cc32)CC1.O=S(=O)(O)CCS(=O)(=O)O [PROCHLORPERAZINE EDISYLATE] | Compound metabolized
* O=C(CCCN1CCC2(CC1)C(=O)NCN2c1ccccc1)c1ccc(F)cc1 | Compound metabolized
* CCc1cccc2c3c([nH]c12)C(CC)(CC(=O)O)OCC3 (configuration not stated) | Compound NOT metabolized
* CN1CCN2c3ccccc3Cc3ccccc3C2C1 (configuration not stated) | Compound NOT metabolized
* CCN1CCCC1CNC(=O)c1cc(S(=O)(=O)CC)c(N)cc1OC (configuration not stated) [AMISULPRIDE] | Compound NOT metabolized
* Clc1cccc(Cl)c1N=C1NCCN1 | Compound NOT metabolized
* O=C1CC2(CCCC2)CC(=O)N1CCCCN1CCN(c2ncccn2)CC1 | Compound metabolized
* C[C@H]1C[C@H]2[C@@H]3CCC4=CC(=O)C=C[C@]4(C)[C@@]3(F)[C@@H](O)C[C@]2(C)[C@@]1(O)C(=O)CO | Compound metabolized
* CC(=O)SCC(Cc1ccccc1)C(=O)NCC(=O)OCc1ccccc1 (configuration not stated) | Compound metabolized
* Nc1nnc(-c2cccc(Cl)c2Cl)c(N)n1 | Compound NOT metabolized
* CCN(C(C)=O)c1cccc(-c2ccnc3c(C#N)cnn23)c1 | Compound metabolized
* CC(C)(C)NCC(O)c1cc(Cl)c(N)c(Cl)c1 (configuration not stated) | Compound NOT metabolized
* CN1[C@@H]2CC[C@H]1C[C@@H](OC(=O)c1c[nH]c3ccccc13)C2 | Compound NOT metabolized
* COc1ccc(/C=C/C(=O)Nc2ccccc2C(=O)O)cc1OC | Compound metabolized
* CC(C)c1nc(N(C)S(C)(=O)=O)nc(-c2ccc(F)cc2)c1/C=C/[C@@H](O)C[C@@H](O)CC(=O)[O-].CC(C)c1nc(N(C)S(C)(=O)=O)nc(-c2ccc(F)cc2)c1/C=C/[C@@H](O)C[C@@H](O)CC(=O)[O-].[Ca+2] | Compound NOT metabolized
* COc1ccc([C@@H]2Sc3ccccc3N(CCN(C)C)C(=O)[C@@H]2OC(C)=O)cc1 | Compound metabolized
* COc1cc2nc(N3CCN(C(=O)C4COc5ccccc5O4)CC3)nc(N)c2cc1OC.CS(=O)(=O)O (configuration not stated) [DOXAZOSIN MESYLATE] | Compound metabolized
